System: KB cells
EXPERIMENTAL_PROTOCOL: Cytotoxicity / cytostasis test on the KB line, % inhibition of proliferation (crystal violet)
Type: cell-based, human
STUDY_CONDITIONS: KB cells, 100 μm [sic], 72 hours
QUANTITY_KIND: % inhibition of proliferation (%)
Answers are plain numbers, in %.

Worked examples, 4 molecules total:
* CCCCc1c(C)c(-c2ccccc2NC)c(CCC2OCCO2)n1C | 100
* CCCCc1c(C)c(-c2ccccc2N(C)C(=O)OCc2ccccc2)c(CCC2OCCO2)n1C | 59
* CCOC(=O)c1[nH]cc(C)c1-c1ccccc1 | 43
* CCOC(=O)c1[nH]cc(C)c1-c1ccccc1NC(=O)CNC(=O)OCc1ccccc1 | 68

For each listed entry, give its % inhibition of proliferation.
1. Cc1c[nH]c2c(=O)[nH]c3ccccc3c12
2. COC(=O)c1[nH]cc(C)c1-c1cccc([N+](=O)[O-])c1
3. Cc1cn(C)c(C(=O)N(C(=O)NC2CCCCC2)C2CCCCC2)c1-c1ccccc1[N+](=O)[O-]

1: 68; 2: 72; 3: 45
